Assay: Single dose pharmacokinetics (PK) study in male Wister-Han rats
Format: in vivo
Conditions: male, Wister-Han, plasma; rat, IV 2 mg/kg
measured-quantity: half-life (h)

// below: answered molecules
>>> recorded_measurement("Cc1cc(N2CCC(c3ncc(N4CCNCC4)cc3C)CC2)c2cnn(C)c2n1 [Example 7]")
14.7
>>> recorded_measurement("Cc1cc(N2CC[C@H](c3ccc(N4CCOC[C@@H](N)C4)cn3)[C@@H](C)C2)c2cnn(C)c2n1 [Example 40]")
7.26

A. Cc1cc(N2CC[C@@H](c3ncc(N4CCOC[C@@H](N)C4)cc3C)[C@H](C)C2)c2cnn(C)c2n1 [Example 28]
B. CO[C@@H]1CN(c2cnc([C@@H]3CCN(c4cc(C)nc5c4cnn5C)C[C@H]3C)c(C)c2)C[C@H]1N [Example 26]
Q: Field: lower recorded half-life (choose A or B ) Let me know the label of the one you choose.
Ans: A

----------
Target: hERG K+ channel (Homo sapiens, UniProt Q12809)
Construct: expressed in transfected cells; host or cells: CHO (Chinese hamster ovary)
Sequence (Q12809 whole entry): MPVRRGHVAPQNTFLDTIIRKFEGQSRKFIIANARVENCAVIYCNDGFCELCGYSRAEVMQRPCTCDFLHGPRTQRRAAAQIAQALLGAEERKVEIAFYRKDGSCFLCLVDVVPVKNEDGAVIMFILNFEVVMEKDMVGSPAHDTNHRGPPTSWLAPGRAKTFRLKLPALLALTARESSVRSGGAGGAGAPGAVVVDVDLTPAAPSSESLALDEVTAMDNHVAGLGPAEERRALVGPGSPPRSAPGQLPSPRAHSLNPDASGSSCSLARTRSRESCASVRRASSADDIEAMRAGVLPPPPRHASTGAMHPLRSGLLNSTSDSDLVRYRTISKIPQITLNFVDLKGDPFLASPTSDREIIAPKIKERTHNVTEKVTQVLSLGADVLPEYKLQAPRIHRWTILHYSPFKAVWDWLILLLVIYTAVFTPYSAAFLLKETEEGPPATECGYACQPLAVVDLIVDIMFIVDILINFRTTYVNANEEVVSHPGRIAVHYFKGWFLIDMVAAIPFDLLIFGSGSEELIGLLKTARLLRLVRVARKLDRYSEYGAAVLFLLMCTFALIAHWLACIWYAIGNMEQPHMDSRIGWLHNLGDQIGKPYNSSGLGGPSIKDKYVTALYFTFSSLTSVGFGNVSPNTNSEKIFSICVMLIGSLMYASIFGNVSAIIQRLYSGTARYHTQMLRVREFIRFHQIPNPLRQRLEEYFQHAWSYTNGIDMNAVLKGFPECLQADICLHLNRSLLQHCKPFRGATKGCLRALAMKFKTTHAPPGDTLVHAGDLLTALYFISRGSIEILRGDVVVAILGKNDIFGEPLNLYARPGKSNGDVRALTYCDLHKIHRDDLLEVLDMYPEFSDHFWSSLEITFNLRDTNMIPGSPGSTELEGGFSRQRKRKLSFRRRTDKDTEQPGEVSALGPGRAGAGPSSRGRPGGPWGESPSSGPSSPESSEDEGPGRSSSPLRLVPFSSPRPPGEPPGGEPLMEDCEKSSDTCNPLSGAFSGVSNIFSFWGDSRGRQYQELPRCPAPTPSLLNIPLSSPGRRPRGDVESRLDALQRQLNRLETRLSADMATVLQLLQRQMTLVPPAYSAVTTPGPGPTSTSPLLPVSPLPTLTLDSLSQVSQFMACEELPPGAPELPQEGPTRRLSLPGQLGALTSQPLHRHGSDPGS
Assay: hERG channel inhibition assay (patch-clamp, CHO-hERG cells)
Assay type: cell-based
Details: safety ratio
Experimental: The hERG K^+ channels were cloned in humans and stably expressed in a CHO (Chinese hamster ovary) cell line. CHOhERG cells were used for patch-clamp (voltage-clamp, whole-cell) experiments. […] After the cells were stabilized for a few minutes, the amplitude and kinetics of IKhERG were recorded at a stimulation frequency of 0.1 Hz (6 bpm). […] The amplitude and kinetics of IKhERG are recorded in each concentration of the drug which were compared to the control values (taken as 100%). […]
measured-quantity: hERG IC20/TLR7 IC50
Form rule: numeric answer, no unit written next to it.

Q: Output reported hERG IC20/TLR7 IC50 of the molecule Cc1cc(N2CC[C@H](c3ccc(N4CCOC[C@@H](N)C4)cn3)[C@@H](C)C2)c2cnn(C)c2n1 on hERG K+ channel (Homo sapiens, UniProt Q12809).
Ans: 655.6

Q: // fetch hERG IC20/TLR7 IC50; item: Cc1cc(N2CCC(c3ncc(N4CCNCC4)nc3C)CC2)c2cnn(C)c2n1 ; system: hERG K+ channel (Homo sapiens, UniProt Q12809)
Ans: 205.9

Q: Give the observed hERG IC20/TLR7 IC50 of Cc1cc(N2CC[C@H](c3ccc(N4CC5(CNCCO5)C4)cn3)[C@@H](C)C2)c2cnn(C)c2n1 for hERG K+ channel (Homo sapiens, UniProt Q12809).
Ans: 400.0

Q: Lab note: hERG K+ channel (Homo sapiens, UniProt Q12809) assay, enter hERG IC20/TLR7 IC50 for Cc1cc(N2CC[C@@H](c3ncc(N4C[C@H]5NCCO[C@@H]5C4)cc3C)[C@H](C)C2)c2cnn(C)c2n1 here
Ans: 372.7

Q: // fetch hERG IC20/TLR7 IC50; item: Cc1cc(N2CC[C@@H](c3ncc(N4CCNC5(CC5)C4)cc3C)[C@H](C)C2)c2cnn(C)c2n1 ; system: hERG K+ channel (Homo sapiens, UniProt Q12809)
Ans: 544.4

Q: Look up and report measured hERG IC20/TLR7 IC50 (hERG K+ channel (Homo sapiens, UniProt Q12809)) for the following molecule: Cc1cc(N2CC[C@@H](c3ncc(N4CCOC[C@@H](N)C4)cc3C)[C@H](C)C2)c2cnn(C)c2n1
Ans: 914.3
